ASSAY NAME: Metabolic stability using rat liver microsomes
Square brackets hold non-standard residues; d marks the D form. Peptide text beside a SMILES is read from it. 1Nal = N[C@@H](Cc1cccc2ccccc12)C(=O)O; Dmt = Cc1cc(O)cc(C)c1C[C@H](N)C(=O)O
MEASURE NAME: half-life (min)
Numeric only. Scale: min

[ask] If you can, please state the reported half-life value of Cc1cc(O)cc(C)c1C[C@H](N)C(=O)N1CCC[C@H]1C(=O)N[C@@H](Cc1cccc2ccccc12)C(N)=O [CYX-5, H-Dmt-Pro-Nal-NH2] (H-[Dmt]-Pro-[1Nal]-NH2) .
[reply] 57.6
